Exercise: for every item that follows, state its recorded pKa.
test: pKa; type: physicochemical; conditions: pKa1, first pKa
Hey, just send me the number, nothing else.

## Task What value of measured pKa is listed for C[C@H]1Cc2c([nH]c3cc(Cl)ccc23)[C@@]2(N1)C(=O)Nc1ccc(Cl)cc12 [Compound 18a] ?
## Result 5.2

## Task What value of measured pKa is listed for C[C@H]1Cc2c([nH]c3cc(F)c(F)cc23)[C@@]2(N1)C(=O)Nc1ccc(Cl)cc12 [Compound 20a] ?
## Result 4.9

## Task What value of measured pKa is listed for C[C@H]1CCc2c([nH]c3ccccc23)[C@@]2(N1)C(=O)Nc1ccc(Br)cc12 ?
## Result 5.2

## Task What value of measured pKa is listed for C[C@H]1Cc2c([nH]c3ccc(F)cc23)[C@@]2(N1)C(=O)Nc1ccc(Cl)cc12 [Compound 17a] ?
## Result 4.8
